# Test system: Strep. Faecalis HH 34358
# testMethodNotes: MIC in vitro
# Type: cell-based
# measurementParameters: Enterococcus faecalis, Table 1; Strep. Faecalis HH 34358; read-out: MIC in vitro
The following compounds are listed with their measured MIC values.

{"columns": ["compound", "MIC (µg/mL)"],
 "data": [
  ["O=C(O)C1=C(CSc2nnnn2CS(=O)(=O)O)CS[C@@H]2C(NC(=O)[C@H](O)c3ccccc3)C(=O)N12 (stereo partly shown)", 50],
  ["Cc1nnc(SCC2=C(C(=O)O)N3C(=O)[C@@H](NC(=O)Cn4cnnn4)[C@H]3SC2)s1 [XIII, Cefazolin, reference compound]", 6.3],
  ["O=C(Cn1cnnn1)NC1C(=O)N2C(C(=O)O)=C(CSc3nnnn3CS(=O)(=O)O)CSC12 (stereo not shown)", 50],
  ["NS(=O)(=O)CCn1nnnc1SCC1=C(C(=O)O)N2C(=O)C(NC(=O)[C@H](O)c3ccccc3)[C@H]2SC1 (stereo partly shown)", 12.5],
  ["O=C(O)C1=C(CSc2nnnn2CCS(=O)(=O)O)CS[C@@H]2C(NC(=O)[C@H](O)c3ccccc3)C(=O)N12 (stereo partly shown)", 50],
  ["NS(=O)(=O)CCn1nnnc1SCC1=C(C(=O)O)N2C(=O)C(NC(=O)CSC(F)(F)F)C2SC1 (stereo not shown)", 12.5],
  ["O=C(CSC(F)(F)F)NC1C(=O)N2C(C(=O)O)=C(CSc3nnnn3CS(=O)(=O)O)CSC12 (stereo not shown)", 50],
  ["NCc1ccccc1CC(=O)NC1C(=O)N2C(C(=O)O)=C(CSc3nnnn3CS(=O)(=O)O)CS[C@H]12 (stereo partly shown)", 25],
  ["NS(=O)(=O)CCn1nnnc1SCC1=C(C(=O)O)N2C(=O)C(NC(=O)Cc3cccs3)[C@H]2SC1 (stereo partly shown)", 6.3],
  ["N#CCC(=O)NC1C(=O)N2C(C(=O)O)=C(CSc3nnnn3CS(=O)(=O)O)CS[C@H]12 (stereo partly shown)", 50],
  ["O=C(Cc1cccs1)NC1C(=O)N2C(C(=O)O)=C(CSc3nnnn3CCS(=O)(=O)O)CS[C@H]12 (stereo partly shown)", 50],
  ["O=C(O)C1=C(CSc2nnnn2CCCCCS(=O)(=O)O)CS[C@@H]2C(NC(=O)[C@H](O)c3ccccc3)C(=O)N12 (stereo partly shown)", 50],
  ["O=C(Cc1cccs1)NC1C(=O)N2C(C(=O)O)=C(CSc3nnnn3CS(=O)(=O)O)CS[C@H]12 (stereo partly shown)", 25]
]}

====

# System: Kleb. pneumo. SK 4200
# testMethodNotes: MIC in vitro
# Assay type: cell-based, Kleb. pneumoniae
# measurementParameters: Klebsiella pneumoniae, Table 1; Kleb. pneumo. SK 4200; read-out: MIC in vitro

{"columns": ["molecule", "systemTested", "MIC"],
 "data": [
  ["Cc1nnc(SCC2=C(C(=O)O)N3C(=O)[C@@H](NC(=O)Cn4cnnn4)[C@H]3SC2)s1 [XIII, Cefazolin, reference compound]", "Kleb. pneumo. SK 4200", "0.8 µg/mL"],
  ["O=C(Cc1cccs1)NC1C(=O)N2C(C(=O)O)=C(CSc3nnnn3CS(=O)(=O)O)CS[C@H]12 (stereo partly shown) [V]", "Kleb. pneumo. SK 4200", "1.6 µg/mL"],
  ["O=C(Cc1cccs1)NC1C(=O)N2C(C(=O)O)=C(CSc3nnnn3CCS(=O)(=O)O)CS[C@H]12 (stereo partly shown) [VI]", "Kleb. pneumo. SK 4200", "1.6 µg/mL"],
  ["N#CCC(=O)NC1C(=O)N2C(C(=O)O)=C(CSc3nnnn3CS(=O)(=O)O)CS[C@H]12 (stereo partly shown) [XII]", "Kleb. pneumo. SK 4200", "0.8 µg/mL"]
]}

====

# Test system: Serra. marc ATCC 13880
# testMethodNotes: MIC in vitro
# Assay type: cell-based, Serratia marcescens
# measurementParameters: Serratia marcescens, ATCC13880, Table 1; Serra. marc ATCC 13880; read-out: MIC in vitro
The following molecules are listed with their measured MIC values.

{"columns": ["molecule", "MIC, µg/mL"],
 "data": [
  ["O=C(Cn1cnnn1)NC1C(=O)N2C(C(=O)O)=C(CSc3nnnn3CS(=O)(=O)O)CSC12 (stereo not shown)", 200],
  ["O=C(O)C1=C(CSc2nnnn2CCCCCS(=O)(=O)O)CS[C@@H]2C(NC(=O)[C@H](O)c3ccccc3)C(=O)N12 (stereo partly shown)", 100],
  ["NS(=O)(=O)CCn1nnnc1SCC1=C(C(=O)O)N2C(=O)C(NC(=O)CSC(F)(F)F)C2SC1 (stereo not shown)", 100],
  ["O=C(O)C1=C(CSc2nnnn2CCS(=O)(=O)O)CS[C@@H]2C(NC(=O)[C@H](O)c3ccccc3)C(=O)N12 (stereo partly shown)", 25]
]}

====

# Test system: Proteus morgani 179
# testMethodNotes: MIC in vitro
# Format: cell-based
# measurementParameters: Table 1, read-out: MIC in vitro
# Method: The compounds of Formula I have exceptional antibacterial activity against both Gram-positive and Gram-negative organisms. Minimum inhibitory concentrations (MIC's) ranged from 0.2 to <200 μg./ml. in in vitro testing.
assayReadout: MIC (µg/mL)

{"columns": ["compound", "systemTested", "unitInfo", "censoringQualifier", "numericResult"],
 "data": [
  ["O=C(O)C1=C(CSc2nnnn2CCS(=O)(=O)O)CS[C@@H]2C(NC(=O)[C@H](O)c3ccccc3)C(=O)N12 (stereo partly shown) [II]", "Proteus morgani 179", "µg/mL", "=", 6.3],
  ["O=C(O)C1=C(CSc2nnnn2CCCCCS(=O)(=O)O)CS[C@@H]2C(NC(=O)[C@H](O)c3ccccc3)C(=O)N12 (stereo partly shown) [IV]", "Proteus morgani 179", "µg/mL", "=", 3.1],
  ["N#CCC(=O)NC1C(=O)N2C(C(=O)O)=C(CSc3nnnn3CS(=O)(=O)O)CS[C@H]12 (stereo partly shown) [XII]", "Proteus morgani 179", "µg/mL", "=", 200],
  ["O=C(O)C1=C(CSc2nnnn2CS(=O)(=O)O)CS[C@@H]2C(NC(=O)[C@H](O)c3ccccc3)C(=O)N12 (stereo partly shown) [I]", "Proteus morgani 179", "µg/mL", "=", 3],
  ["O=C(CSC(F)(F)F)NC1C(=O)N2C(C(=O)O)=C(CSc3nnnn3CS(=O)(=O)O)CSC12 (stereo not shown) [VII]", "Proteus morgani 179", "µg/mL", "=", 100],
  ["Cc1nnc(SCC2=C(C(=O)O)N3C(=O)[C@@H](NC(=O)Cn4cnnn4)[C@H]3SC2)s1 [XIII, Cefazolin, reference compound]", "Proteus morgani 179", "µg/mL", "=", 200],
  ["NS(=O)(=O)CCn1nnnc1SCC1=C(C(=O)O)N2C(=O)C(NC(=O)Cc3cccs3)[C@H]2SC1 (stereo partly shown) [VIII]", "Proteus morgani 179", "µg/mL", ">", 200]
]}

====

The following compounds are listed with their measured MIC values.
# Test system: Salmonella ATCC 12176
# testMethodNotes: MIC in vitro
# Type: cell-based
# measurementParameters: Salmonella, ATCC12176, Table 1, read-out: MIC in vitro
assayReadout: MIC (µg/mL)

{"columns": ["compound", "unitInfo", "censoringQualifier", "numericResult"],
 "data": [
  ["Cc1nnc(SCC2=C(C(=O)O)N3C(=O)[C@@H](NC(=O)Cn4cnnn4)[C@H]3SC2)s1 [XIII, Cefazolin, reference compound]", "µg/mL", "=", 0.8],
  ["O=C(O)C1=C(CSc2nnnn2CCS(=O)(=O)O)CS[C@@H]2C(NC(=O)[C@H](O)c3ccccc3)C(=O)N12 (stereo partly drawn)", "µg/mL", "=", 0.8],
  ["NS(=O)(=O)CCn1nnnc1SCC1=C(C(=O)O)N2C(=O)C(NC(=O)Cc3cccs3)[C@H]2SC1 (stereo partly drawn)", "µg/mL", "=", 0.8],
  ["O=C(O)C1=C(CSc2nnnn2CS(=O)(=O)O)CS[C@@H]2C(NC(=O)[C@H](O)c3ccccc3)C(=O)N12 (stereo partly drawn)", "µg/mL", "=", 0.8],
  ["O=C(Cc1cccs1)NC1C(=O)N2C(C(=O)O)=C(CSc3nnnn3CCS(=O)(=O)O)CS[C@H]12 (stereo partly drawn)", "µg/mL", "=", 0.8],
  ["NS(=O)(=O)CCn1nnnc1SCC1=C(C(=O)O)N2C(=O)C(NC(=O)CSC(F)(F)F)C2SC1 (stereo not drawn)", "µg/mL", "=", 0.4],
  ["NCc1ccccc1CC(=O)NC1C(=O)N2C(C(=O)O)=C(CSc3nnnn3CS(=O)(=O)O)CS[C@H]12 (stereo partly drawn)", "µg/mL", "≤", 0.1],
  ["NS(=O)(=O)CCn1nnnc1SCC1=C(C(=O)O)N2C(=O)C(NC(=O)[C@H](O)c3ccccc3)[C@H]2SC1 (stereo partly drawn)", "µg/mL", "=", 0.4],
  ["N#CCC(=O)NC1C(=O)N2C(C(=O)O)=C(CSc3nnnn3CS(=O)(=O)O)CS[C@H]12 (stereo partly drawn)", "µg/mL", "=", 0.4],
  ["O=C(Cc1cccs1)NC1C(=O)N2C(C(=O)O)=C(CSc3nnnn3CS(=O)(=O)O)CS[C@H]12 (stereo partly drawn)", "µg/mL", "=", 0.8],
  ["O=C(O)C1=C(CSc2nnnn2CCCCCS(=O)(=O)O)CS[C@@H]2C(NC(=O)[C@H](O)c3ccccc3)C(=O)N12 (stereo partly drawn)", "µg/mL", "=", 3.1],
  ["O=C(Cn1cnnn1)NC1C(=O)N2C(C(=O)O)=C(CSc3nnnn3CS(=O)(=O)O)CSC12 (stereo not drawn)", "µg/mL", "=", 0.4]
]}
